system: 521955-158-R2-J5-PDC complex spheroids, viability; assay: Anticancer human tumor 521955-158-R2-J5-PDC patient-derived pancreatic carcinoma cell line growth inhibition [RAS]; conditions: second compound 3.16 µM; first compound 3.16 µM; stronger effect = lower value
Reported values of viability, T/C for individual entries
Value expressed in %; do not type the unit.

Worked examples follow.
[
  {
    "molecule": "NC1c2ccccc2OC12CCN(c1cnc3c(N4CCCc5ncccc54)n[nH]c3n1)CC2 (stereo not drawn) + C#Cc1c(F)ccc2cc(O)cc(-c3ncc4c(N5CC6CCC(C5)N6)nc(OCC56CCCN5CC(F)C6)nc4c3F)c12",
    "test.value": 5.56
  },
  {
    "molecule": "CCC(CC)c1cc(NC2CCC(N)C2)n2nccc2n1 (stereo not drawn) + C#Cc1c(F)ccc2cc(O)cc(-c3ncc4c(N5CC6CCC(C5)N6)nc(OCC56CCCN5CC(F)C6)nc4c3F)c12",
    "test.value": 4.58
  }
]

Attention now shifts to the item below.
Ask | Please give the measured viability, T/C for this molecule: Cc1nc(N2CCC3(CC2)COC(C)C3N)c(CO)nc1Sc1ccnc(N)c1Cl (stereo not drawn) + C#Cc1c(F)ccc2cc(O)cc(-c3ncc4c(N5CC6CCC(C5)N6)nc(OCC56CCCN5CC(F)C6)nc4c3F)c12
Reply | 19

---

system: 521955-158-R2-J5-PDC complex spheroids, viability; assay: Anticancer human tumor 521955-158-R2-J5-PDC cell line growth inhibition [RAS]; conditions: second compound 0.00316 µM; first compound 10 µM; stronger effect = lower value;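 further: spheroids also contain HUVEC endothelial cells and mesenchymal stem cells as stroma; compound exposure lasted seven days before the viability read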
measurement.kind: viability, T/C

[
  {
    "molecule": "Cc1nc(N2CCC3(CC2)COC(C)C3N)c(CO)nc1Sc1ccnc(N)c1Cl (stereo not drawn) + C=CC(=O)N1CCN(c2nc(OCC3CCCN3C)nc3c(F)c(-c4nc(N)cc(C)c4C(F)(F)F)c(Cl)cc23)C(C)C1",
    "study.system": "521955-158-R2-J5-PDC complex spheroids, viability",
    "viability, T/C": "56.8%"
  },
  {
    "molecule": "CC(Nc1ccc2c(c1)OCCn1cc(N3C(=O)OCC3C(F)F)nc1-2)C(N)=O (stereo not drawn) + C=CC(=O)N1CCN(c2nc(OCC3CCCN3C)nc3c(F)c(-c4nc(N)cc(C)c4C(F)(F)F)c(Cl)cc23)C(C)C1",
    "study.system": "521955-158-R2-J5-PDC complex spheroids, viability",
    "viability, T/C": "19.8%"
  }
]

Attention now shifts to the item below.
Ask | Please give the measured viability, T/C for this molecule: C[C@@H](NC(=O)c1ncnc(N)c1Cl)c1ncc(C(=O)Nc2cc(C(F)(F)F)c(Cl)cn2)s1 + C=CC(=O)N1CCN(c2nc(OCC3CCCN3C)nc3c(F)c(-c4nc(N)cc(C)c4C(F)(F)F)c(Cl)cc23)C(C)C1
Reply | 56.3%

---

tested on: 521955-158-R2-J5-PDC complex spheroids, viability; test: Anticancer human tumor 521955-158-R2-J5-PDC cell line growth inhibition [RAS]; settings: second compound 0.003 µM; first compound 0.1 µM; stronger effect = lower value;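 further: spheroids also contain HUVEC endothelial cells and mesenchymal stem cells as stroma; compound exposure lasted seven days before the viability read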
Reported values of viability, T/C for individual entries
Value expressed in %; do not type the unit.

[
  {
    "molecule": "CCN1CCN(Cc2ccc(Nc3ncc(F)c(-c4cc(F)c5nc(C)n(C(C)C)c5c4)n3)nc2)CC1 + CCn1c(-c2cccnc2C(C)OC)c2c3cc(ccc31)N1CCOC(CC(NC(=O)C(C(C)C)N(C)C(=O)C3(F)CCN(C(=O)C#CC(C)(C)N(C)C)CC3)C(=O)N3CCCC(N3)C(=O)OCC(C)(C)C2)C1",
    "units.text": "%",
    "test.value": 75.7
  },
  {
    "molecule": "NC1c2ccccc2OC12CCN(c1cnc3c(N4CCCc5ncccc54)n[nH]c3n1)CC2 (centres undefined) + CCn1c(-c2cc(N3CCN(C)CC3)cnc2C(C)OC)c2c3cc(ccc31)-c1csc(n1)CC(NC(=O)C1CC1C)C(=O)N1CCCC(N1)C(=O)OCC(C)(C)C2",
    "units.text": "%",
    "test.value": 28.6
  },
  {
    "molecule": "O=C(c1ccc(F)c(F)c1Nc1ccc(I)cc1F)N1CC(O)([C@@H]2CCCCN2)C1 + CCn1c(-c2cccnc2C(C)OC)c2c3cc(ccc31)N1CCOC(CC(NC(=O)C(C(C)C)N(C)C(=O)C3(F)CCN(C(=O)C#CC(C)(C)N(C)C)CC3)C(=O)N3CCCC(N3)C(=O)OCC(C)(C)C2)C1",
    "units.text": "%",
    "test.value": 36.1
  }
]

Attention now shifts to the item below.
Ask | Please give the measured viability, T/C for this molecule: CC(C)NCC(C(=O)N1CCN(c2ncnc3c2C(C)CC3O)CC1)c1ccc(Cl)cc1 (centres undefined) + CCn1c(-c2cccnc2C(C)OC)c2c3cc(ccc31)N1CCOC(CC(NC(=O)C(C(C)C)N(C)C(=O)C3(F)CCN(C(=O)C#CC(C)(C)N(C)C)CC3)C(=O)N3CCCC(N3)C(=O)OCC(C)(C)C2)C1
Reply | 92.5

Hello, the source for this data is PubChem BioAssay AID2060900, in case you need it.
